assay: Clearance after iv administration to Sprague-Dawley rat at dosage of 0.2 mg/kg; type: ADME, organism-based; set-up: dose 0.2 mg/kg, route intravenous; conditions: in vivo
ASSAY METRIC: clearance
Please provide the amount together with its unit, number first.

## Task Look up clearance: `Cc1cc(C(=O)Nc2ccc(-c3ccccc3S(N)(=O)=O)cc2)n(-c2cc3ccccc3cc2F)n1`
## Result 17.7 mL/min/kg

----------
test: Tested for half life value after oral administration at dosage of 4 mg/kg in rat; type: ADME, organism-based; parameters: dose 4 mg/kg, route oral; conditions: in vivo
ASSAY METRIC: half-life
Please provide the amount together with its unit, number first.

## Task Look up half-life: `Cc1cc(C(=O)Nc2ccc(-c3ccccc3S(N)(=O)=O)cc2)n(-c2cc3ccccc3cc2F)n1`
## Result 6 h
